assayed.target: active TAFI (thrombin-activatable fibrinolysis inhibitor, plasma carboxypeptidase B) in clots formed from normal human plasma (Homo sapiens, UniProt Q96IY4)
Construct: tissue Haematologic Technologies Inc. (Burlington, Vt.)
Sequence (Q96IY4 115-423): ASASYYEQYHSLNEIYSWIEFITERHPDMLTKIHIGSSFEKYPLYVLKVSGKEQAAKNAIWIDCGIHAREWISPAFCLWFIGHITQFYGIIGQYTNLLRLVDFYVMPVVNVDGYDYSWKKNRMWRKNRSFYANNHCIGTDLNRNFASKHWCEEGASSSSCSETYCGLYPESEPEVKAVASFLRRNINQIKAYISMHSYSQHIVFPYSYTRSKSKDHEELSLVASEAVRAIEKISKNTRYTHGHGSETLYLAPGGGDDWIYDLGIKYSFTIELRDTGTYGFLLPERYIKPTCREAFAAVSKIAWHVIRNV
assay.explanation: turbidometric tPA-induced lysis assay of clots formed from normal human plasma (NHP)
run.conditions: tPA 294 pmol/L, 37° C., TAFI-dependent profibrinolytic effect, read-out: EC50 (shortening of lysis time)
endpoint.label: EC50 (µM)
Return type: number; implicit unit µM.

Exercise: // returns reported EC50 for input N=C(N)NCCSC(CC(=O)O)C(=O)O (stereo not shown)
Solution: 90
